- test: Surface pressure-area (Π-A) measurements of pure lipid films on a Langmuir-Blodgett minitrough (Example 5, FIG. 1)
- Type: physicochemical
- condition_summary: pure film at air-buffer interface, 20° C. and 34° C.
assay_metric: film collapse during compression/expansion cycles (take-off position)

Example entries and their recorded answers appear below.
| molecule | value_observed |
| --- | --- |
| CC/C=C\C/C=C\C/C=C\CCCCCCCC(=O)OCCCCCCCCCCCCCCCCCC [steroyl linolenate wax ester, steroyl linolenate] | collapse |
| CCCCCCCC/C=C\CCCCCCCC(=O)OCCCCCCCCCCCCCCCC [palmityl oleate, reference compound] | collapse |
| CCCCCCCC/C=C\CCCCCCCC(=O)OCCCCCCCCCCCCCCCC(=O)O [(O-oleoyl)-16-hydroxypalmitic acid] | do not collapse |
| CCCCCCCCCCCCCCCCCC(=O)OCCCCCCCCCCCCCCCC [palmityl stearate wax ester, palmityl stearate] | collapse |

Here is the next item to consider.
Lookup result for CCCCCCCCCCCCCCCCCC(=O)OCCCCCCCCCCCCCCCC(=O)O [(O-stearyl)-16-hydroxypalmitic acid, (O)-stearyl-16-hydroxypalmitic acid] ; measured film collapse during compression/expansion cycles (take-off position): do not collapse
